Origin of measurements: ChEMBL document CHEMBL1134813

experiment: Anti HIV-1 activity measured in terms of cytotoxicity against NP-2/CD4/CXCR4 cells infected with HIV-1(GUN1WT); format: functional, cell-based, Homo sapiens; conditions: Homo sapiens
Where a SMILES comes first, the peptide text is derived from it. [ ]: non-standard residue; d: D form. The star is where a group is joined. sY = N[C@@H](Cc1ccc(OS(=O)(=O)O)cc1)C(=O)O; X1 = O=S(=O)(O)O*
reported.property: log10 of IC50 (log10 of the value in µM)
Quick note: numbers are log10 of IC50, with µM as the unit.

| molecule | log10 of IC50 |
| --- | --- |
| CC(C)C[C@H](NC(=O)[C@H](CC(=O)OS(=O)(=O)O)NC(=O)[C@@H](N)Cc1ccc(OS(=O)(=O)O)cc1)C(=O)N[C@@H](CC(=O)OS(=O)(=O)O)C(=O)N[C@@H](Cc1ccc(OS(=O)(=O)O)cc1)C(=O)N[C@@H](Cc1ccc(OS(=O)(=O)O)cc1)C(=O)O.CCN(CC)CC.CCN(CC)CC.CCN(CC)CC.CCN(CC)CC.CCN(CC)CC (H-[sY]D(X1)LD(X1)[sY][sY]-OH) | 1.81 |
| CCN(CC)CC.CCN(CC)CC.CCN(CC)CC.CCN(CC)CC.CCN(CC)CC.CCN(CC)CC.CCN(CC)CC.CCN(CC)CC.COC(=O)C(=O)N1CCC[C@H]1C(=O)N[C@H](Cc1ccccc1)C(=O)Nc1ccccc1OCC(=O)N[C@@H](Cc1ccc(OS(=O)(=O)O)cc1)C(=O)N[C@@H](COS(=O)(=O)O)C(=O)N[C@@H](Cc1ccc(OS(=O)(=O)O)cc1)C(=O)N[C@@H](CC(=O)OS(=O)(=O)O)C(=O)N[C@@H](CC(C)C)C(=O)N[C@@H](CC(=O)OS(=O)(=O)O)C(=O)N[C@@H](Cc1ccc(OS(=O)(=O)O)cc1)C(=O)N[C@@H](Cc1ccc(OS(=O)(=O)O)cc1)C(=O)O | 1.00 |

For every record below, what is its log10 of IC50?
1. COC(=O)C(=O)N1CCC[C@H]1C(=O)N[C@H](Cc1ccccc1)C(=O)Nc1ccccc1OCC(=O)N[C@@H](Cc1ccc(O)cc1)C(=O)N[C@@H](CC(=O)O)C(=O)N[C@@H](CC(C)C)C(=O)N[C@@H](CC(=O)O)C(=O)N[C@@H](Cc1ccc(O)cc1)C(=O)N[C@@H](Cc1ccc(O)cc1)C(=O)O
2. CCN(CC)CC.CCN(CC)CC.CCN(CC)CC.CCN(CC)CC.CCN(CC)CC.COC(=O)C(=O)N1CCC[C@H]1C(=O)N[C@H](Cc1ccccc1)C(=O)Nc1ccccc1OCC(=O)N[C@@H](Cc1ccc(OS(=O)(=O)O)cc1)C(=O)N[C@@H](CC(=O)OS(=O)(=O)O)C(=O)N[C@@H](CC(C)C)C(=O)N[C@@H](CC(=O)OS(=O)(=O)O)C(=O)N[C@@H](Cc1ccc(OS(=O)(=O)O)cc1)C(=O)N[C@@H](Cc1ccc(OS(=O)(=O)O)cc1)C(=O)O
3. CC(C)C[C@H](NC(=O)[C@H](CC(=O)O)NC(=O)[C@@H](N)Cc1ccc(O)cc1)C(=O)N[C@@H](CC(=O)O)C(=O)N[C@@H](Cc1ccc(O)cc1)C(=O)N[C@@H](Cc1ccc(O)cc1)C(=O)O (H-YDLDYY-OH)

Result:
[2.00, 1.90, 2.26]
